B1: PTPN9 (parent)
chain: TQHLPRECLPENLGGYVKIDLATW

# Variants of: B1
# ASSAY METHOD TEXT: protein stability index of a GFP-peptide fusion (GPS, HEK-293T) (PSI 1-6); higher = more stable;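 also: lentivirally expressed fusions sorted by FACS into six bins by GFP to DsRed ratio, PSI derived from sequencing read proportions per bin multiplied by bin number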
# CONDITIONS: c terminus: a fixed tail appended
Classes (protein stability index): c1 = under 2, c2 = from 2 up to 3, c3 = 3 and over

Consider the following illustrative entries.
# VARIANT STRING, CAT
measured = [
    ("L21V", "c2"),
    ("A22L", "c3"),
    ("D20E", "c1"),
    ("T1W", "c2"),
    ("Y16K", "c3"),
    ("E7N", "c1"),
    ("V17F", "c1"),
    ("L21G", "c2"),
]

Band assignment needed for L4E please. c2
